target: human α1H T-type channels (Homo sapiens, UniProt O95180); construct: expressed in transfected cells; host or cells: HEK 293; assay: T-type calcium channel block, whole cell patch clamp in HEK cells (α1H); format: cell-based; details: HEK cells, patch clamp, mainly non-inactivated protocol; values above 10 μM shown as 10 μM; read-out: T-type Calcium Channel Block α1H IC50
Sequence (O95180 whole entry): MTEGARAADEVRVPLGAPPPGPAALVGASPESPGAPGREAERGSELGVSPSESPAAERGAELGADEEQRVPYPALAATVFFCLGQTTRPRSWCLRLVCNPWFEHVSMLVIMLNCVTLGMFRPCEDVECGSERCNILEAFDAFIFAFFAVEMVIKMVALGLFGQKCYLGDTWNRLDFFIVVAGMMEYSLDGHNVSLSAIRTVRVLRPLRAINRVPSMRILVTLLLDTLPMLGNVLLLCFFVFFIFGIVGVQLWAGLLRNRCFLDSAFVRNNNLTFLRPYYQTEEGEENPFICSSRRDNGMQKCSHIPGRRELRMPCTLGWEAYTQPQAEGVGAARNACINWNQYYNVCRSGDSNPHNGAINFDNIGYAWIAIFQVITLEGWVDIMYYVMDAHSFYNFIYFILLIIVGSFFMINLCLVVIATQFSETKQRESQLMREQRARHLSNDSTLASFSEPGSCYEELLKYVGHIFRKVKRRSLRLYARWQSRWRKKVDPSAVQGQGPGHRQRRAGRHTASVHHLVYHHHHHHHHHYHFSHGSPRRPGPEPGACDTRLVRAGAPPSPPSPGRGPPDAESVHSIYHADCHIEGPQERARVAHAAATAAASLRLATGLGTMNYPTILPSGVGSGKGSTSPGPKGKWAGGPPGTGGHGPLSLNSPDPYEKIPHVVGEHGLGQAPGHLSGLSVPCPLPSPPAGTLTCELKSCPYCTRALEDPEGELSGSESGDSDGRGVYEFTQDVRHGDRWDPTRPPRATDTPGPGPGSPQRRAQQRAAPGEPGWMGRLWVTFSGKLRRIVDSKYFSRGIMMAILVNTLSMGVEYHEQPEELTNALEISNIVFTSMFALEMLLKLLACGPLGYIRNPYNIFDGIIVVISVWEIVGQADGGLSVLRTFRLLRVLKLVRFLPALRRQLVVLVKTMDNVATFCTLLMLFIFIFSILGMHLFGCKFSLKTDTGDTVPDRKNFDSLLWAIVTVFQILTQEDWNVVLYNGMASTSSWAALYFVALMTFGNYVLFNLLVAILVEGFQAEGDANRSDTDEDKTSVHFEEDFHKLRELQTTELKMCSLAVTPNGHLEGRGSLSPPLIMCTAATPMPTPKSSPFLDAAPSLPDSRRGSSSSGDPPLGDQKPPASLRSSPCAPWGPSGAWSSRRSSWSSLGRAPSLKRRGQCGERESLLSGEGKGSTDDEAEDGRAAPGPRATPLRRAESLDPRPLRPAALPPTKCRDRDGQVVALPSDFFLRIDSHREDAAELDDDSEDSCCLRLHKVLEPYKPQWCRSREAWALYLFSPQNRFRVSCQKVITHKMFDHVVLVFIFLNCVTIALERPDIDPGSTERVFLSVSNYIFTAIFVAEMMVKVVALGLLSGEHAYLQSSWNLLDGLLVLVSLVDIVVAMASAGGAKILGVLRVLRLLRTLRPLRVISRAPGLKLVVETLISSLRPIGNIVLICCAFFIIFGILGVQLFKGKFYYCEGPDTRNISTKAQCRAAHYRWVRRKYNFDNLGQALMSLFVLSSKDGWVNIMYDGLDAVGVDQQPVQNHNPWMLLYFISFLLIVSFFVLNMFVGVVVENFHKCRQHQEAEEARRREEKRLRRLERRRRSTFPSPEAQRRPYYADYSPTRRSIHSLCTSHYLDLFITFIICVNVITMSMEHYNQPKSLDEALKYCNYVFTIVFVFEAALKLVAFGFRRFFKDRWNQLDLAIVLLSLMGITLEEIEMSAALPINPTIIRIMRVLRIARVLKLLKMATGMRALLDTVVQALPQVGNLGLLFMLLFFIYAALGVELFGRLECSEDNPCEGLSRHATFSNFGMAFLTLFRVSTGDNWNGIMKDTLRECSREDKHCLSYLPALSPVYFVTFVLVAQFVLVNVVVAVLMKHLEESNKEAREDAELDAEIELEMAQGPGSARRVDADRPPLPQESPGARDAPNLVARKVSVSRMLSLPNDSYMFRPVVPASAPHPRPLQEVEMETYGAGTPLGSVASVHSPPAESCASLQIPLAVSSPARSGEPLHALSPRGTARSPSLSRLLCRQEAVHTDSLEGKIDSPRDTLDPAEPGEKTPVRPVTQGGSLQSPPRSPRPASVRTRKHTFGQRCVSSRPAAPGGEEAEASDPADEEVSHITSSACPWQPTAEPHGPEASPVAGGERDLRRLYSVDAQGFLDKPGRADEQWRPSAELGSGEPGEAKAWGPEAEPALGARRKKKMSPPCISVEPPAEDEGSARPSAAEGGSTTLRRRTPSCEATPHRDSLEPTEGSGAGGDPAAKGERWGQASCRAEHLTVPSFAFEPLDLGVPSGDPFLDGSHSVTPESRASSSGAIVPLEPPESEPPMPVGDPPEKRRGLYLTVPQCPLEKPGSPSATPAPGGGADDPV
pIC50: −log10 of the molar value.

# compound, study_target, pIC50
rows = [
    ("O=C(NCC1CCN(CC(=O)N2CCC[C@@H]2C(F)(F)F)CC1)c1cccc(Cl)c1", "human α1H T-type channels (Homo sapiens, UniProt O95180)", 5.83),
    ("O=C(NCC1CCN(CCNC(=O)C2(C(F)(F)F)CC2)CC1)c1cccc(OC(F)(F)F)c1", "human α1H T-type channels (Homo sapiens, UniProt O95180)", 7.40),
    ("COc1cc(C(=O)NCC2CCN(CCNS(=O)(=O)C(F)(F)F)CC2)cc(C(F)(F)F)c1", "human α1H T-type channels (Homo sapiens, UniProt O95180)", 6.13),
    ("CC(C(=O)NC1CCCC1)N1CCC(CNC(=O)c2cc(F)cc(Cl)c2)CC1 (stereo not shown)", "human α1H T-type channels (Homo sapiens, UniProt O95180)", 6.96),
]
